We begin with a simple list: items and their reported pIC50.
# study-system: human Her2 exon 20 insertion mutation YVMA (Homo sapiens, UniProt P04626, INS775YVMA)
# Sequence (P04626 with tags, fused parts or gaps INS775YVMA): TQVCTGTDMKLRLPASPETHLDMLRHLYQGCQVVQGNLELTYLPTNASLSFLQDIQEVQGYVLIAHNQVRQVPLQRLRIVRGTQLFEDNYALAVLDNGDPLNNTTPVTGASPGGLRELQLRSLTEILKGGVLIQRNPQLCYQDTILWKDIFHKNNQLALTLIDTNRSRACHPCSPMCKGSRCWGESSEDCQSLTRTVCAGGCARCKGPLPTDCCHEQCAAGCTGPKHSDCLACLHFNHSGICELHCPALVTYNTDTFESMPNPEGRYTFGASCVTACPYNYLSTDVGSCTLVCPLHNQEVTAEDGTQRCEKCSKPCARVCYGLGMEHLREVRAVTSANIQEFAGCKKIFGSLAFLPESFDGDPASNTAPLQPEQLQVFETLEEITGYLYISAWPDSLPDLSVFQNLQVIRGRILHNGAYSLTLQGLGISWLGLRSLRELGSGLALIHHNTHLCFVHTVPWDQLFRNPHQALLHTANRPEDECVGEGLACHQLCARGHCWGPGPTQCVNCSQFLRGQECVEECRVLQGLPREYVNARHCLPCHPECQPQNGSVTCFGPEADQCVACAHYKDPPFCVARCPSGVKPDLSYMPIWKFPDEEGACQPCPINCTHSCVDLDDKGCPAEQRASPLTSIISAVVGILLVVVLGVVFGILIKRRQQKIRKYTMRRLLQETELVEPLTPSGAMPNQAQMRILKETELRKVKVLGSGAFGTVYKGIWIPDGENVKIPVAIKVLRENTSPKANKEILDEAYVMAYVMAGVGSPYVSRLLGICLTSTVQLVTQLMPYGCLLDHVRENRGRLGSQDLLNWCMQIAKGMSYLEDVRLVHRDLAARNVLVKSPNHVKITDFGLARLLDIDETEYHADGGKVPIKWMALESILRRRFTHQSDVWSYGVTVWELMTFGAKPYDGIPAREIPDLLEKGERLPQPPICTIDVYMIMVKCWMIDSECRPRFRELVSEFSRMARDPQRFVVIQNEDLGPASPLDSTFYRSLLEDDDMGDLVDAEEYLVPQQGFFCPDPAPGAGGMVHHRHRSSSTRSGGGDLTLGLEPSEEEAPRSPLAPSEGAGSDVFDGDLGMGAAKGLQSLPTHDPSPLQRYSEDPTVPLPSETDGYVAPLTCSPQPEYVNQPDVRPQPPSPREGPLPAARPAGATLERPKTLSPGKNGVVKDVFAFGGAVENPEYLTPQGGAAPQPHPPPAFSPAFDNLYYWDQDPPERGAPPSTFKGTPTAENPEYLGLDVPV
# procedure-text: Her2 Exon 20 YVMA insertion cellular phosphorylation inhibition (MSD p-Her2 Y1248/total Her2);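 further: lentivirally transduced NIH-3T3 cells in 1% FBS medium, electrochemiluminescent MSD read-out, graded compound concentrations at 37 °C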
# test-parameters: Her2 YVMAins cells, 4 h compound
pIC50: −log10 of the molar value.
experimental-readout: pIC50

1) C=CC(=O)Nc1cc(Nc2ncnc(Nc3cc(Cl)c(F)cc3C(C)(C)O)n2)c(OC)cc1N(C)C[C@H]1CCCN1C
8.26
2) C=CC(=O)Nc1cc(Nc2nccc(Nc3cc(Cl)c(F)cc3C(C)(C)O)n2)c(OC)cc1N1CC(F)(F)C[C@@H]1CN(C)C
8.15
3) C=CC(=O)Nc1cc(Nc2nccc(Nc3cc(Cl)c(F)cc3C(C)(C)O)n2)c(OC)cc1N1C[C@@H](C)C[C@@H]1CN(C)C
7.65

---

We begin with a simple list: items and their reported IC50.
# study-system: EGFR L858R&T790M (Homo sapiens, UniProt P00533, L858R/T790M)
# Sequence (P00533 25-1210 T790M/L858R): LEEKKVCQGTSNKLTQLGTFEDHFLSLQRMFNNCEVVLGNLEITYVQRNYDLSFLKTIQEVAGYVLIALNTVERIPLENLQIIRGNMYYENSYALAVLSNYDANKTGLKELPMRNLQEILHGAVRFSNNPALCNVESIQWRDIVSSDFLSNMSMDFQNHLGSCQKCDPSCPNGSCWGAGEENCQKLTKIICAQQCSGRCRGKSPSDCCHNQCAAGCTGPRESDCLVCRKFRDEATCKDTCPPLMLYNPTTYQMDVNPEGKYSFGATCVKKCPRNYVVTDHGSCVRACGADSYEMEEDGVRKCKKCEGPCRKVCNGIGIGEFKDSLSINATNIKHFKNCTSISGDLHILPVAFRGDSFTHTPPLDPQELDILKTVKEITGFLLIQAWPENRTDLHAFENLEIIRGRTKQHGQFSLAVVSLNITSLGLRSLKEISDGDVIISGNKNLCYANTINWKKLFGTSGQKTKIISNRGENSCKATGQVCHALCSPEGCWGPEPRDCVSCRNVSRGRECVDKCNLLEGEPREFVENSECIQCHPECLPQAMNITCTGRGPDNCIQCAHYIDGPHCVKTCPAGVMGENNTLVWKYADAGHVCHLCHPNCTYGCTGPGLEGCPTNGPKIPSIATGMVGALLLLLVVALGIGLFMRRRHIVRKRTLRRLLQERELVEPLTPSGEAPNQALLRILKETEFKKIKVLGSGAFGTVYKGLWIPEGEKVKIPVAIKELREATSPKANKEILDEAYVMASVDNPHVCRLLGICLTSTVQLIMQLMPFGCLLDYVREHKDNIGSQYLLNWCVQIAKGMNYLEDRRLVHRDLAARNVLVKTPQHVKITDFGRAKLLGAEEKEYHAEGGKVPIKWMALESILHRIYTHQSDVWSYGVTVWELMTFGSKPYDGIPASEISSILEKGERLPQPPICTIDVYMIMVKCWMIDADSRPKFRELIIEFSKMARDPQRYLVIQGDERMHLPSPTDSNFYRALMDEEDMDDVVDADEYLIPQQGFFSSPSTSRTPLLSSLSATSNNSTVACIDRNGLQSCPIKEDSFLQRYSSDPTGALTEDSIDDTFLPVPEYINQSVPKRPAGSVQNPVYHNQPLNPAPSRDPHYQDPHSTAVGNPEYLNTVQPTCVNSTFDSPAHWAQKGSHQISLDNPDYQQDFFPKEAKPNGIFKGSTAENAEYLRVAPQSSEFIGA
# procedure-text: EGFR L858R and T790M cellular phosphorylation inhibition in NCI-H1975 (MSD);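 further: phosphorylated and total EGFR detected by electrochemiluminescence, cells exposed to compound in medium containing 1% FBS at 37 °C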
# test-parameters: NCI-H1975 cells, 4 h compound, p-EGFR(Y1068)/total EGFR; read-out: EGFR L858R and T790M mutation IC50
Structures can show the parent of a compound that is named as a salt.
experimental-readout: IC50 (nM)

1. C=CC(=O)Nc1cc(Nc2ncnc(Nc3cc(F)c(C4CC4)cc3C(C)(C)O)n2)c(OC)cc1N(C)CCN(C)C [Compound 34]
0.5
2. C=CC(=O)Nc1cc(Nc2nccc(Nc3cc(Cl)c(F)cc3C(C)(C)O)n2)c(OC)cc1N1CCC[C@@H]1CN1CCC1 [Compound 98, formic acid salt]
0.9
3. C=CC(=O)Nc1cc(Nc2ncnc(Nc3cc(F)c(F)cc3C(C)(O)CC)n2)c(OC)cc1N1CC[C@@H]2CN(C)C[C@@H]21 (stereo partly drawn) [Compound 47]
0.3
4. C=CC(=O)Nc1cc(Nc2ncnc(Nc3cc(Cl)c(F)cc3C(C)(O)CC)n2)c(OC)cc1N1CCC[C@@H]1CN(C)C (stereo partly drawn) [Compound 63]
0.4
5. C=CC(=O)Nc1cc(Nc2ncnc(Nc3cc(F)c(C4CC4)cc3C(C)(C)O)n2)c(OC)cc1N1CCC[C@@H]1CN(C)C [Compound 46]
0.2
6. C=CC(=O)Nc1cc(Nc2ncnc(Nc3cc(F)c(F)cc3C(C)(C)O)n2)c(OC)cc1N(C)CCN(C)C [Compound 4]
0.4

---

# Test system: NCI-H1975 EGFR L858R/T790M cells
# procedure-text: Cell proliferation, NCI-H1975 EGFR L858R/T790M (CellTiter-Glo, 72 h);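 further: viable cells quantified by luciferase-based ATP luminescence, proliferation expressed relative to DMSO-treated wells (100%) after subtracting a parallel plate read at the time of dosing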
# Format: cell-based
# test-parameters: Homo sapiens, NCI-H1975, 72 h, NCI-H1975, 72 h proliferation; read-out: EGFR L858R and T790M mutation GI50
Cut-off 20 nM on GI50: below means Condition met, at or above means Condition not met.

1. COc1cc(N(C)CCN(C)C)c(NC(=O)/C=C/CN(C)C)cc1Nc1ncnc(Nc2cc(F)c(F)cc2C(C)(C)O)n1 [Compound 5]
Condition not met
2. C=CC(=O)Nc1cc(Nc2ncnc(Nc3cc(F)c(F)cc3C(C)(O)CC)n2)c(OC)cc1N(C)CCN(C)C (stereo not drawn) [Compound 49]
Condition met
3. C=CC(=O)Nc1cc(Nc2ncnc(Nc3cc(F)c(Cl)c(F)c3C(C)(C)O)n2)c(OC)cc1N(C)CCN(C)C [Compound 16]
Condition not met
4. C=CC(=O)Nc1cc(Nc2ncc(C(F)(F)F)c(Nc3cc(Cl)c(F)cc3C(C)(C)O)n2)c(OC)cc1N1CC[C@@H](N(C)C)C1 [Compound 84]
Condition met
5. C=CC(=O)Nc1cc(Nc2ncnc(Nc3cc(F)c(F)cc3C(C)(C)O)n2)c(OC)cc1N1CC(CN(C)C)C1 [Compound 23]
Condition not met
6. C=CC(=O)Nc1cc(Nc2ncnc(Nc3ccc(Cl)c(F)c3C(C)(C)O)n2)c(OC)cc1N(C)CCN(C)C [Compound 14]
Condition met
7. C=CC(=O)Nc1cc(Nc2ncnc(Nc3cc(Cl)c(F)cc3C(C)(C)O)n2)c(OC)cc1N(C)C[C@@H]1CCCN1C [Compound 44]
Condition met
8. C=CC(=O)Nc1cc(Nc2ncnc(Nc3cc(Cl)c(F)cc3C(C)(C)O)n2)c(OC)cc1N(C)CCN1CCC[C@@H]1C [Compound 42]
Condition met
9. C=CC(=O)Nc1cc(Nc2ncnc(Nc3cc(Cl)c(Cl)cc3C(C)(C)O)n2)c(OC)cc1N1CC[C@@H]1CN(C)C [Compound 54]
Condition met
10. C=CC(=O)Nc1cc(Nc2nccc(Nc3cc(Cl)c(F)cc3C(C)(C)O)n2)c(OC)cc1N(C)CCN(C)C [Compound 36]
Condition met
11. C=CC(=O)Nc1cc(Nc2nccc(Nc3cc(Cl)c(F)cc3C(C)(C)O)n2)c(OC)cc1N1CC[C@H](N(C)C)C1 [Compound 87]
Condition not met
12. C=CC(=O)Nc1cc(Nc2ncnc(Nc3cc(F)c(F)cc3C(C)(O)CC)n2)c(OC)cc1N1CC[C@@H](N(C)C)C1 (stereo partly drawn) [Compound 48]
Condition met
13. C=CC(=O)Nc1cc(Nc2nccc(Nc3cc(Cl)c(Cl)cc3C(C)(C)O)n2)c(OC)cc1N1CC[C@@H]1CN(C)C [Compound 71]
Condition met
14. C=CC(=O)Nc1cc(Nc2nccc(Nc3cc(Cl)c(F)cc3C(C)(C)O)n2)c(OC)cc1N1CC(F)(F)C[C@@H]1CN(C)C [Compound 82]
Condition met
15. C=CC(=O)Nc1cc(Nc2nccc(Nc3cc(Cl)c(F)cc3C(C)(C)O)n2)c(OC)cc1N1CC[C@@H](CN(C)C)C1 [Compound 86]
Condition not met
16. C=CC(=O)Nc1cc(Nc2ncnc(Nc3cc(C4CC4)c(F)cc3C(C)(C)O)n2)c(OC)cc1N(C)CCN(C)C [Compound 75]
Condition met
17. C=CC(=O)Nc1cc(Nc2ncnc(Nc3cc(F)c(F)cc3C(C)(C)O)n2)c(OC)cc1N1CC[C@@H]1CN(C)C [Compound 19]
Condition met
18. C=CC(=O)Nc1cc(Nc2ncnc(Nc3cc(F)c(Cl)cc3C(C)(C)O)n2)c(OC)cc1N1CC[C@@H](N(C)C)C1 [Compound 51]
Condition met
19. C=CC(=O)Nc1cc(Nc2ncnc(Nc3cc(F)c(F)cc3C(C)(C)O)n2)c(OC)cc1N(C)CCN(C)C [Compound 4]
Condition met
20. C=CC(=O)Nc1cc(Nc2ncc(C#N)c(Nc3cc(Cl)c(F)cc3C(C)(C)O)n2)c(OC)cc1N1CC[C@@H](N(C)C)C1 [Compound 85]
Condition not met
21. C=CC(=O)Nc1cc(Nc2ncnc(Nc3cc(Cl)c(F)cc3C(C)(C)O)n2)c(OC)cc1N1CC[C@@H]1CN(C)C [Compound 38]
Condition met
22. C=CC(=O)Nc1cc(Nc2ncnc(Nc3cc(F)c(F)cc3C(C)(C)O)n2)c(OC)cc1N(C)C[C@H]1CCCN1C [Compound 20]
Condition met
23. C=CC(=O)Nc1cc(Nc2nccc(Nc3cc(Cl)c(F)cc3C(C)(C)O)n2)c(OC)cc1N1C[C@@H](F)[C@@H](N(C)C)C1 [Compound 79]
Condition met
24. C=CC(=O)Nc1cc(Nc2ncnc(Nc3cc(F)c(F)cc3C(C)(C)O)n2)c(OC)cc1N(C)CCN1CCCCC1 [Compound 24]
Condition not met
25. C=CC(=O)Nc1cc(Nc2ncnc(Nc3cc(Cl)c(F)cc3C(C)(C)O)n2)c(OC)cc1N1CC[C@@H]2CN(C)C[C@@H]21 [Compound 28]
Condition met
26. C=CC(=O)Nc1cc(Nc2ncnc(Nc3cc(F)c(Cl)cc3C(C)(C)O)n2)c(OC)cc1N(C)CCN(C)C [Compound 12]
Condition met
27. C=CC(=O)Nc1cc(Nc2ncnc(Nc3cc(F)c(F)cc3C(C)(O)CC)n2)c(OC)cc1N1CC[C@@H]2CN(C)C[C@@H]21 (stereo partly drawn) [Compound 47]
Condition met

---

# study-system: human EGFR exon 20 V769_D770insASV (Homo sapiens, UniProt P00533, INS769ASV)
# Sequence (P00533 with tags, fused parts or gaps INS769ASV): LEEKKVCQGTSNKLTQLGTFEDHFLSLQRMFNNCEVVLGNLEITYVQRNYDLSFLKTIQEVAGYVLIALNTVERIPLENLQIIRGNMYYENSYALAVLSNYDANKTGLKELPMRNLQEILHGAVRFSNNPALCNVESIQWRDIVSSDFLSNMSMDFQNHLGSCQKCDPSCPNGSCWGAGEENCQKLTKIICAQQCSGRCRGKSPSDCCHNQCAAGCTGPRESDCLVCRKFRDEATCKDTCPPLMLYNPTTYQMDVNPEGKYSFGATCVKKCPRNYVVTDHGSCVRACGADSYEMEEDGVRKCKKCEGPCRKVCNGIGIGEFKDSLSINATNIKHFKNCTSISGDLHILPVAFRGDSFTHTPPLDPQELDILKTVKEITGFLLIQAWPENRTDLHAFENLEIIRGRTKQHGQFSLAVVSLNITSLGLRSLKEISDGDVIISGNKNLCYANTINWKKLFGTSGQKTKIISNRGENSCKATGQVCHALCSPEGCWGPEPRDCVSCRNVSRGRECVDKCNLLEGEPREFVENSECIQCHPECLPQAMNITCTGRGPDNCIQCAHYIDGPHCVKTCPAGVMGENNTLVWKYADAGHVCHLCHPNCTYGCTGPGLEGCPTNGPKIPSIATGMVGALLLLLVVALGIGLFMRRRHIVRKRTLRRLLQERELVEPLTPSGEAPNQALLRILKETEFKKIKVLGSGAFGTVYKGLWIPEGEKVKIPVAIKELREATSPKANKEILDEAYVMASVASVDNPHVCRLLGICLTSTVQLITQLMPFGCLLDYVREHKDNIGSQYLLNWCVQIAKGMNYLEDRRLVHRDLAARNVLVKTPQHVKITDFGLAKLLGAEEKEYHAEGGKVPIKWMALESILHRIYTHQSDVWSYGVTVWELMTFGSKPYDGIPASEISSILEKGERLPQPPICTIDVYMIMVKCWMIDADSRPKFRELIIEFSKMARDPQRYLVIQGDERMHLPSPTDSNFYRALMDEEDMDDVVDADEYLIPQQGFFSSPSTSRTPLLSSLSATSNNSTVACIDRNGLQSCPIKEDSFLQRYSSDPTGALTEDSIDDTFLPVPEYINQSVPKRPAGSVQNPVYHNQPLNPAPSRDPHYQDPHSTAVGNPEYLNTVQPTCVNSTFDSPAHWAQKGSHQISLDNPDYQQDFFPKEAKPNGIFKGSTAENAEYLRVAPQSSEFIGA
# procedure-text: EGFR Exon20 ASV insertion cellular phosphorylation inhibition (MSD pEGFR Y1068/total EGFR);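 further: electrochemiluminescent readout on an MSD SECTOR Imager, IL3-independent transduced cells in medium with 1% FBS, compound concentration series at 37 °C and 5% CO2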
# test-parameters: Ba/F3 EGFR ASV ins cells, 4 h compound, p-EGFR(Y1068)/total EGFR
Structures can show the parent of a compound that is named as a salt.
Group membership follows IC50 per the scheme lower: < 10 nM; middle: ≥ 10 nM and < 30 nM; upper: ≥ 30 nM

1) C=CC(=O)Nc1cc(Nc2ncnc(Nc3cc(F)c(F)cc3C(C)(O)CC)n2)c(OC)cc1N1CC[C@@H](N(C)C)C1 (stereo partly shown) [Compound 48]
middle
2) C=CC(=O)Nc1cc(Nc2nccc(Nc3cc(Cl)c(F)cc3C(C)(C)O)n2)c(OC)cc1N1C[C@H](N(C)C)C2(CC2)C1 [Compound 83, formic acid salt]
upper
3) C=CC(=O)Nc1cc(Nc2ncnc(Nc3cc(Cl)c(F)cc3C(C)(O)CC)n2)c(OC)cc1N1CCC[C@H]1CN(C)C (stereo partly shown) [Compound 64]
upper
4) C=CC(=O)Nc1cc(Nc2nccc(Nc3cc(Cl)c(F)cc3C(C)(C)O)n2)c(OC)cc1N1C[C@@H](F)[C@@H](N(C)C)C1 [Compound 79]
upper
5) C=CC(=O)Nc1cc(Nc2ncnc(Nc3cc(C4CC4)c(F)cc3C(C)(C)O)n2)c(OC)cc1N(C)CCN(C)C [Compound 75]
middle
6) C=CC(=O)Nc1cc(Nc2ncnc(Nc3cc(F)c(C4CC4)cc3C(C)(C)O)n2)c(OC)cc1N1CC[C@@H]2CN(C)C[C@@H]21 [Compound 45]
lower
7) C=CC(=O)Nc1cc(Nc2ncnc(Nc3cc(Cl)c(F)cc3C(C)(O)CC)n2)c(OC)cc1N1CC[C@@H](N(C)C)C1 (stereo partly shown) [Compound 59]
middle
8) C=CC(=O)Nc1cc(Nc2ncc(C(F)(F)F)c(Nc3cc(Cl)c(F)cc3C(C)(C)O)n2)c(OC)cc1N1CC[C@@H](N(C)C)C1 [Compound 84]
upper
9) C=CC(=O)Nc1cc(Nc2ncnc(Nc3ccc(Cl)c(F)c3C(C)(C)O)n2)c(OC)cc1N(C)CCN(C)C [Compound 14]
middle
10) C=CC(=O)Nc1cc(Nc2ncnc(Nc3cc(Cl)c(F)cc3C(C)(C)O)n2)c(OC)cc1N1CC[C@@H]2CN(C)C[C@@H]21 [Compound 28]
middle
11) C=CC(=O)Nc1cc(Nc2nccc(Nc3cc(Cl)c(F)cc3C(C)(C)O)n2)c(OC)cc1N1CCC[C@@H]1CN1CCC1 [Compound 98, formic acid salt]
middle
12) C=CC(=O)Nc1cc(Nc2ncc(Cl)c(Nc3cc(Cl)c(F)cc3C(C)(C)O)n2)c(OC)cc1N1CC[C@@H](N(C)C)C1 [Compound 74]
upper
13) C=CC(=O)Nc1cc(Nc2nccc(Nc3cc(Cl)c(F)cc3C(C)(C)O)n2)c(OC)cc1N1C[C@H](F)C[C@@H]1CN(C)C [Compound 88, formic acid salt]
lower
14) C=CC(=O)Nc1cc(Nc2ncnc(Nc3cc(Cl)c(F)cc3C(C)(C)O)n2)c(OC)cc1N1CCOC[C@@H]1CN(C)C [Compound 40]
middle
15) C=CC(=O)Nc1cc(Nc2nccc(Nc3cc(Cl)c(F)cc3C(C)(C)O)n2)c(OC)cc1N1CC(F)(F)C[C@@H]1CN(C)C [Compound 82]
middle
16) C=CC(=O)Nc1cc(Nc2ncnc(Nc3cc(Cl)c(F)cc3C(C)(O)CC)n2)c(OC)cc1N1CCC[C@@H]1CN(C)C (stereo partly shown) [Compound 63]
lower
17) C=CC(=O)Nc1cc(Nc2ncnc(Nc3cc4cc[nH]c4cc3C(C)(C)O)n2)c(OC)cc1N(C)CCN(C)C [Compound 95]
lower
18) C=CC(=O)Nc1cc(Nc2nccc(Nc3cc(Cl)c(F)cc3C(C)(O)CC)n2)c(OC)cc1N1CC[C@@H](N(C)C)C1 (single isomer, unassigned) [Compound 76]
upper
19) C=CC(=O)Nc1cc(Nc2nccc(Nc3cc(Cl)c(F)cc3C(C)(C)O)n2)c(OC)cc1N1CC[C@@H](CN(C)C)C1 [Compound 86]
middle
20) C=CC(=O)Nc1cc(Nc2nccc(Nc3cc(Cl)c(Cl)cc3C(C)(C)O)n2)c(OC)cc1N1CC[C@@H](N(C)C)C1 [Compound 68]
middle
21) C=CC(=O)Nc1cc(Nc2ncnc(Nc3cc(F)c(Cl)cc3C(C)(C)O)n2)c(OC)cc1N1CC[C@@H]1CN(C)C [Compound 62]
middle
22) COc1cc(N(C)CCN(C)C)c(NC(=O)/C=C/CN(C)C)cc1Nc1ncnc(Nc2cc(F)c(F)cc2C(C)(C)O)n1 [Compound 5]
upper
23) C=CC(=O)Nc1cc(Nc2ncnc(Nc3cc(F)c(C4CC4)cc3C(C)(C)O)n2)c(OC)cc1N(C)CCN(C)C [Compound 34]
lower
24) C=CC(=O)Nc1cc(Nc2ncnc(Nc3cc4ccn(C)c4cc3C(C)(C)O)n2)c(OC)cc1N(C)CCN(C)C [Compound 32]
lower
25) C=CC(=O)Nc1cc(Nc2ncnc(Nc3cc(Cl)c(Cl)cc3C(C)(C)O)n2)c(OC)cc1N1CC[C@@H]1CN(C)C [Compound 54]
upper
